Give measured composite z-score for each item. Keep answers brief.
procedureSummary: small-molecule binders of probe aNOTCH2, primary screen, biochemical, small-molecule microarray, 635/667 nm fluorescence (AID 1121);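 further: score merges feature fluorescence read at 667 nm with its signal to noise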
statedConditions: higher = more signal
Just the number, please.

Problem: // returns reported composite z-score for input CC1(C)C(=O)C(c2ccccc2)=C2CN3C(=O)N(CCc4ccccc4)C(=O)C3(Cc3ccc(C(F)(F)F)cc3)C=C21 (stereo not drawn)
Result: 0.306

Problem: // returns reported composite z-score for input COc1cc(C(O)C2C=CC3C(=O)N(Cc4ccccc4)C(=O)C3N2n2cnnc2)cc(OC)c1OC (stereo not drawn)
Result: 0.202

Problem: // returns reported composite z-score for input O=C1c2ccccc2[C@](Cc2ccccc2I)(C(=O)NC2CC2)[C@H](c2ccc(CO)cc2)N1Cc1ccccc1C(F)(F)F
Result: -0.0986

Measured values drawn from PubChem BioAssay for this set.
